Data origin, for the record: patent US4677107A

Test: Toxicological study, LD50 mouse
Conditions: in vivo, po, Mouse (ICR strain)
Endpoint Name: LD50

**Q:** What value of measured LD50 is listed for "CCN1CCN(c2cc(-c3ccccc3)c3ccccc3n2)CC1.O=C(O)/C=C\C(=O)O.O=C(O)/C=C\C(=O)O" ?
**A:** ~1200 mg/kg
